IC50 values, listed per item
Test system: Colon cancer cells (Colon 26)
Test: Antiproliferative activity, CELLTITER-GLO luminescent cell viability assay
Assay type: cell-based
Conditions: Mus musculus, Colon26, compound alone, read-out: IC50 (μM) Colon26

{"Compound": "O=C1O[C@H]([C@@H](O)CO)C(O)=C1O [Vitamin C, L-ascorbic acid]", "IC50": "> 2000 µM"}

Consider now this further compound.
Record request: IC50 value, item COC1=C(OC)C(=O)C(C)=CC1=O [Compound A6, 2,3-dimethoxy-5-methyl-1,4-benzoquinone]
> 20 µM

----------
System: Leukemia T lymphocytes (Jurkat)
Experiment: Antiproliferative activity, trypan blue staining and automated counting
Type: cell-based
Settings: Homo sapiens, combination of vitamin C and compound A6 (weight ratio 100:1), concentration of the named component, read-out: IC50
pIC50: −log10 of the molar value.
Quantity Kind: pIC50

[I] O=C1O[C@H]([C@@H](O)CO)C(O)=C1O
[II] COC1=C(OC)C(=O)C(C)=CC1=O
I'd appreciate it if you could identify which of I and II has the greater pIC50. The response must carry the label of the picked entry.
I
